# targetEntity: huCTLA4 (Homo sapiens, UniProt P16410)
# Sequence (P16410 36-223): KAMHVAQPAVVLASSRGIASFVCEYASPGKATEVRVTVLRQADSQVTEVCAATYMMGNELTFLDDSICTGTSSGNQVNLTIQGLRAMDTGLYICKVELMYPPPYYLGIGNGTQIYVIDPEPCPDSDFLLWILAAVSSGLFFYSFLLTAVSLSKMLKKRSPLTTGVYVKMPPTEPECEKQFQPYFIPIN
# testDetails: Flow binding to CHO cells stably expressing CTLA4
# Set-up: huCTLA4 and huPD-L1, full-length mammalian surface expression constructs were generated; expressed in transfected cells; host or cells: CHO cells, lentiviral transduction, sorted to >98% purity
# runParameters: Table E23; CD80 IgV-Fc (inert) at 33.3 nM; CHO cells stably expressing CTLA4
# Experimental: Binding of selected immunomodulatory fusion proteins to cognate binding partners was assessed. […] Cells were sorted in a Bio-Rad S3 Cell Sorter (Bio-Rad Corp., USA) to >98% purity. […] For staining and analysis by flow cytometry, 100,000 cells of appropriate transfected cells were plated in 96-well round bottom plates. […] Cells were then washed twice with 150 μL/well stain buffer, fixed in 2% formaldehyde/PBS, and analyzed on Intellicyt flow cytometer (Intellicyt Corp., USA). […]
The threshold is inclusive: CTLA4 MFI at 33.3 nM of exactly 20000 counts as MET; values below receive NOT MET.

molecule	qualitativeLabel
H18F/A26N/E35D/M47V/V68M/A71G/D90K (protein, UniProt P33681 35-288, looked up, variant H18F A26N E35D M47V V68M A71G D90K) T-lymphocyte activation …: VIHVTKEVKEVATLSCGFNVSVEELNQTRIYWQKDKKMVLTMMSGDVNIWPEYKNRTIFDITNNLSIMILGLRPSDEGTYECVVLKYEKKAFKREHLAEVTLSVKADFPTPSISDFEIPTSNIRRIICSTSGGFPEPHLSWLENGEELNAINTTVSQDPETELYAVSSKLDFNMTTNHSFMCLIKYGHLRVNQTFNWNTTKQEHFPDNLLPSWAITLISVNGIFVICCLTYCFAPRCRERRRNERLRRESVRPV	NOT MET
H18V/A26D/E35D/M47V/V68M/A71G/D90G (protein, UniProt P33681 35-288, looked up, variant H18V A26D E35D M47V V68M A71G D90G, Fc fusion) T-lymphocyte activation …: VIHVTKEVKEVATLSCGVNVSVEELDQTRIYWQKDKKMVLTMMSGDVNIWPEYKNRTIFDITNNLSIMILGLRPSDEGTYECVVLKYEKGAFKREHLAEVTLSVKADFPTPSISDFEIPTSNIRRIICSTSGGFPEPHLSWLENGEELNAINTTVSQDPETELYAVSSKLDFNMTTNHSFMCLIKYGHLRVNQTFNWNTTKQEHFPDNLLPSWAITLISVNGIFVICCLTYCFAPRCRERRRNERLRRESVRPV	MET
H18Y/A26P/E35D/M471/V68M/A71G (protein) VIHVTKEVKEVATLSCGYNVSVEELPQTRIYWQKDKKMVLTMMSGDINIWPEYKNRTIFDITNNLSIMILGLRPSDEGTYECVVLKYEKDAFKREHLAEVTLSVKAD	NOT MET
H18I/A26P/E35D/M47V/V68M/A71G (protein, UniProt P33681 35-288, looked up, variant H18I A26P E35D M47V V68M A71G) T-lymphocyte activation …: VIHVTKEVKEVATLSCGINVSVEELPQTRIYWQKDKKMVLTMMSGDVNIWPEYKNRTIFDITNNLSIMILGLRPSDEGTYECVVLKYEKDAFKREHLAEVTLSVKADFPTPSISDFEIPTSNIRRIICSTSGGFPEPHLSWLENGEELNAINTTVSQDPETELYAVSSKLDFNMTTNHSFMCLIKYGHLRVNQTFNWNTTKQEHFPDNLLPSWAITLISVNGIFVICCLTYCFAPRCRERRRNERLRRESVRPV	MET

Attention now shifts to the item below.
## Task Quick check, CTLA4 MFI at 33.3 nM >= 20000? H18V/A26Q/E35D/M47V/V68L/A71G/D90G (protein, UniProt P33681 35-288, looked up, variant H18V A26Q E35D M47V V68L A71G D90G) T-lymphocyte activation …: VIHVTKEVKEVATLSCGVNVSVEELQQTRIYWQKDKKMVLTMMSGDVNIWPEYKNRTIFDITNNLSILILGLRPSDEGTYECVVLKYEKGAFKREHLAEVTLSVKADFPTPSISDFEIPTSNIRRIICSTSGGFPEPHLSWLENGEELNAINTTVSQDPETELYAVSSKLDFNMTTNHSFMCLIKYGHLRVNQTFNWNTTKQEHFPDNLLPSWAITLISVNGIFVICCLTYCFAPRCRERRRNERLRRESVRPV
## Result NOT MET
